molecular target: protein farnesyltransferase (Rattus norvegicus, UniProt Q02293+Q04631); construct: Rat brain protein farnesyltransferase activity is measured; from tissue; host or cells: rat brain; purified according to Reiss et al., Cell 62:81-88 (1990), steps one through three; assay: in vitro inhibition of protein farnesyltransferase (scintillation proximity assay, biotin-K Ras B fragment); format: biochemical; conditions: at 1 × 10^-5 M
MEASUREMENT_TYPE: inhibition at 10 µM (%)
Write the number in % without appending the unit.

{"columns": ["MOLECULE", "inhibition at 10 µM [%]"],
 "data": [
  ["CSCC[C@H](NC(=O)c1ccc(CNc2ccc(C(=O)c3ccccc3)cc2)cc1-c1ccccc1)C(=O)O [Example 702]", 79]
]}

Prompt: Which inhibition at 10 µM is listed for CSCC[C@H](NC(=O)c1ccc(CNCc2cc(Cl)cc(Cl)c2)cc1-c1ccccc1)C(=O)O [Example 712] ?
Completion: 69

Prompt: What value of inhibition at 10 µM has been recorded for this entry: CSCC[C@H](NC(=O)c1ccc(CNCCc2cccs2)cc1-c1ccccc1)C(=O)O [Example 369]
Completion: 87

Prompt: Entry under review: CSCC[C@H](NC(=O)c1ccc(CNc2ccccc2N(C)C)cc1-c1ccccc1)C(=O)O [Example 672] . Reported inhibition at 10 µM?
Completion: 48

Prompt: Any idea what its inhibition at 10 µM is? The molecule is CSCC[C@H](NC(=O)c1ccc(CNCCCCc2ccccc2)cc1-c1ccccc1)C(=O)O [Example 718]
Completion: 40

Prompt: Which measured inhibition at 10 µM value corresponds to CSCC[C@H](NC(=O)c1ccc(CNc2ccc(C(C)C)cc2)cc1-c1ccccc1)C(=O)O [Example 692] ?
Completion: 74

Prompt: Please give the measured inhibition at 10 µM for this molecule: CSCC[C@H](NC(=O)c1ccc(CNc2ccc(F)cc2)cc1-c1ccccc1)C(=O)O [Example 687]
Completion: 78

Prompt: Item CSCC[C@H](NC(=O)c1ccc(CNc2cc(C)on2)cc1-c1ccccc1)C(=O)O [Example 372] has what recorded inhibition at 10 µM?
Completion: 69

Prompt: Consider the molecule shown here: CSCC[C@H](NC(=O)c1ccc(CNc2cccc(O)c2)cc1-c1ccccc1)C(=O)O [Example 676] What is its recorded inhibition at 10 µM?
Completion: 76

Prompt: Find the recorded inhibition at 10 µM belonging to CSCC[C@H](NC(=O)c1ccc(NC(=O)Cc2ccccc2[N+](=O)[O-])cc1-c1ccccc1)C(=O)O [Example 757] and report it.
Completion: 58

Prompt: Name the reported inhibition at 10 µM value associated with the molecule CSCC[C@H](NC(=O)c1ccc(CNc2cccc(N(C)C)c2)cc1-c1ccccc1)C(=O)O [Example 683]
Completion: 57

Prompt: Fill in the blank: the reported inhibition at 10 µM of CSCC[C@H](NC(=O)c1ccc(CNc2nnc(C)s2)cc1-c1ccccc1)C(=O)O [Example 371] is ____.
Completion: 66

Prompt: If you can, please state the reported inhibition at 10 µM value of CSCC[C@H](NC(=O)c1ccc(CNC(CO)Cc2ccccc2)cc1-c1ccccc1)C(=O)O (stereo partly shown) [Example 714] .
Completion: 56

Prompt: Any idea what inhibition at 10 µM was measured for CSCC[C@H](NC(=O)c1ccc(CNCC(C)(C)CN(C)C)cc1-c1ccccc1)C(=O)O [Example 639] ?
Completion: 44

Prompt: Need inhibition at 10 µM, item CSCC[C@H](NC(=O)c1ccc(CNCCC2CCCCC2)cc1-c1ccccc1)C(=O)O [Example 663]
Completion: 43

Prompt: What does the data say about its inhibition at 10 µM? Entry: CCn1cc(NCc2ccc(C(=O)N[C@@H](CCSC)C(=O)O)c(-c3ccccc3)c2)c(=O)n1CC [Example 364]
Completion: 69
